B1: Chromodomain-helicase-DNA-binding protein 7, residues 2564 to 2605; numbered along this chain, Q9P2D1 (parent)
chain: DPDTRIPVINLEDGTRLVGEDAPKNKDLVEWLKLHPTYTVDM

variants of: B1; assay: abundance fitness (aPCA) (normalised: wild type 0, dead -1); higher = more abundant; growth selection in yeast, the domain comes from the species named; details: Homo sapiens
measure-name: abundance fitness
The answer should be a number; do not append a unit.

R5Q : -0.493
D21V : -0.508

Consider the record given below.
Please give the measured abundance fitness for this variant: `K24D`
-0.489
